Could you please report measured EC50 for the items listed next?
- SYSTEM_UNDER_TEST: UniProt:Q15391
- Sequence (Q15391 whole entry): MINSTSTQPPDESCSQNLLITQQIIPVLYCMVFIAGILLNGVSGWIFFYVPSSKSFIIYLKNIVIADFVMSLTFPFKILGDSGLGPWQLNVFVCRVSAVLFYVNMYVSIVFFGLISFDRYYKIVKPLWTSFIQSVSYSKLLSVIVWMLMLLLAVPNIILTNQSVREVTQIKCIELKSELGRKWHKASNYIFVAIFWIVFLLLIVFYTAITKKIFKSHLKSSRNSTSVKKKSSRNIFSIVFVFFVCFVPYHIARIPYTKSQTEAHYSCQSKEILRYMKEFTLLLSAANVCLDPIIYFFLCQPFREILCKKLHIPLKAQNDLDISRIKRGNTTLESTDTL
- PROCEDURE_SUMMARY: Agonist activity at human P2Y14 receptor expressed in […] cells
- Format: functional, cell-based, COS-7
Answers are plain numbers, in nM.

O=c1ccn([C@@H]2O[C@H](COP(=O)(O)OP(=O)(O)O[C@H]3O[C@H](CO)[C@@H](F)[C@H](O)[C@H]3O)[C@@H](O)[C@H]2O)c(=O)[nH]1 = 567
O=c1ccn([C@@H]2O[C@H](COP(=O)(O)OP(=O)(O)O[C@H]3O[C@H](CO)[C@@H](O)[C@H](O)[C@H]3F)[C@@H](O)[C@H]2O)c(=O)[nH]1 = 2500
O=c1ccn([C@@H]2O[C@H](COP(=O)(O)OP(=O)(O)O[C@H]3O[C@H](CO)[C@@H](O)[C@H](F)[C@H]3O)[C@@H](O)[C@H]2O)c(=O)[nH]1 = 361
O=c1ccn([C@@H]2O[C@H](COP(=O)(O)OP(=O)(O)OC[C@H]3O[C@H](O)[C@@H](O)[C@@H](O)[C@@H]3O)[C@@H](O)[C@H]2O)c(=O)[nH]1 = 658
O=c1ccn([C@@H]2O[C@H](COP(=O)(O)OP(=O)(O)O[C@@H]3[C@H](O)[C@H](O)[C@@H](O)[C@H](O)[C@H]3O)[C@@H](O)[C@H]2O)c(=O)[nH]1 = 1880

Exercise: Recall and state the measured EC50 for CC(=O)NCCNC(=O)[C@H]1O[C@H](OP(=O)(O)OP(=O)(O)OC[C@H]2O[C@@H](n3ccc(=O)[nH]c3=O)[C@H](O)[C@@H]2O)[C@H](O)[C@@H](O)[C@@H]1O .
Solution: 496
